# System: LG0567-F671-PDC complex spheroids viability;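 further: spheroids exposed to compound for seven days before readout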
# Experiment Notes: Anticancer human tumor LG0567-F671-PDC patient-derived lung adenocarcinoma cell line growth inhibition [RAS]; active means viability on the fitted dose curve at most 10% of control; inactive means the rest
# Condition Info: second compound 0.1 µM; first compound 0.316 µM
// classify into class 1 = active, class 0 = inactive

Solved cases (6 shown):
>>> assigned_category("CCC(CC)c1cc(NC2CCC(N)C2)n2nccc2n1 (centres undefined) + C=CC(=O)N1CCN(c2nc(OCC3CCCN3C)nc3c(F)c(-c4nc(N)cc(C)c4C(F)(F)F)c(Cl)cc23)C(C)C1")
"class 0"
>>> assigned_category("CC(Nc1ccc2c(c1)OCCn1cc(N3C(=O)OCC3C(F)F)nc1-2)C(N)=O (centres undefined) + C=CC(=O)N1CCN(c2nc(OCC3CCCN3C)nc3c(F)c(-c4nc(N)cc(C)c4C(F)(F)F)c(Cl)cc23)C(C)C1")
"class 1"
>>> assigned_category("CC(C)NCC(C(=O)N1CCN(c2ncnc3c2C(C)CC3O)CC1)c1ccc(Cl)cc1 (centres undefined) + C#Cc1c(F)ccc2cc(O)cc(-c3ncc4c(N5CC6CCC(C5)N6)nc(OCC56CCCN5CC(F)C6)nc4c3F)c12")
"class 0"
>>> assigned_category("CCN1CCN(Cc2ccc(Nc3ncc(F)c(-c4cc(F)c5nc(C)n(C(C)C)c5c4)n3)nc2)CC1 + C#Cc1c(F)ccc2cc(O)cc(-c3ncc4c(N5CC6CCC(C5)N6)nc(OCC56CCCN5CC(F)C6)nc4c3F)c12")
"class 0"
>>> assigned_category("C=CC(=O)Nc1cc(Nc2nccc(-c3cn(C)c4ccccc34)n2)c(OC)cc1N(C)CCN(C)C + C#Cc1c(F)ccc2cc(O)cc(-c3ncc4c(N5CC6CCC(C5)N6)nc(OCC56CCCN5CC(F)C6)nc4c3F)c12")
"class 0"
>>> assigned_category("NC1c2ccccc2OC12CCN(c1cnc3c(N4CCCc5ncccc54)n[nH]c3n1)CC2 (centres undefined) + C=CC(=O)N1CCN(c2nc(OCC3CCCN3C)nc3c(F)c(-c4nc(N)cc(C)c4C(F)(F)F)c(Cl)cc23)C(C)C1")
"class 1"

Which outcome was entered for the compound C[C@@H](NC(=O)c1ncnc(N)c1Cl)c1ncc(C(=O)Nc2cc(C(F)(F)F)c(Cl)cn2)s1 + C#Cc1c(F)ccc2cc(O)cc(-c3ncc4c(N5CC6CCC(C5)N6)nc(OCC56CCCN5CC(F)C6)nc4c3F)c12 in this test?
class 0

Which outcome was entered for the compound CC1(O)CCCC1n1c(=O)c(C(F)F)cc2cnc(NC3CCN(S(C)(=O)=O)CC3)nc21 (centres undefined) + C#Cc1c(F)ccc2cc(O)cc(-c3ncc4c(N5CC6CCC(C5)N6)nc(OCC56CCCN5CC(F)C6)nc4c3F)c12 in this test?
class 0
